Taken from a melting point compilation (Tetko et al.; mined from patent text by program, amines drawn as free bases though some values may be those of a salt).

# reported melting point; entries follow

# count of solved cases: 3
CN(C)C(=O)c1c(-c2ccccc2F)ccc2ccccc12; 105 to 106 °C
Cc1cc(-c2c(Cl)ccc(C(=O)c3cnn(C)c3O)c2Cl)on1; 143 to 144 °C
O=C1N(c2ccccc2Br)Cc2cnc(Nc3ccccc3)nc2N1c1cccc(CO)c1; 136 °C

Quick one: melting point for COc1cc(/C=C/C=C/C=O)ccc1OCc1nc(-c2ccccc2)oc1C ?
133 to 134 °C

Then Fc1ccc(F)c(C=C2CCNc3nc(Br)ccc32)c1 ?
178 to 179 °C

Then COc1cc(CO)c(-n2cccc2)cc1OC ?
92 to 93 °C
